Biological target: P2X7 receptor (Rattus norvegicus, UniProt Q64663)
Construct: rP2X7 (IC50; nM); other: rP2X7; HEK-293 cells stably transfected with P2X7 receptor, Bz-ATP at EC80, Fluo-8 NW; potency
Sequence (Q64663 whole entry): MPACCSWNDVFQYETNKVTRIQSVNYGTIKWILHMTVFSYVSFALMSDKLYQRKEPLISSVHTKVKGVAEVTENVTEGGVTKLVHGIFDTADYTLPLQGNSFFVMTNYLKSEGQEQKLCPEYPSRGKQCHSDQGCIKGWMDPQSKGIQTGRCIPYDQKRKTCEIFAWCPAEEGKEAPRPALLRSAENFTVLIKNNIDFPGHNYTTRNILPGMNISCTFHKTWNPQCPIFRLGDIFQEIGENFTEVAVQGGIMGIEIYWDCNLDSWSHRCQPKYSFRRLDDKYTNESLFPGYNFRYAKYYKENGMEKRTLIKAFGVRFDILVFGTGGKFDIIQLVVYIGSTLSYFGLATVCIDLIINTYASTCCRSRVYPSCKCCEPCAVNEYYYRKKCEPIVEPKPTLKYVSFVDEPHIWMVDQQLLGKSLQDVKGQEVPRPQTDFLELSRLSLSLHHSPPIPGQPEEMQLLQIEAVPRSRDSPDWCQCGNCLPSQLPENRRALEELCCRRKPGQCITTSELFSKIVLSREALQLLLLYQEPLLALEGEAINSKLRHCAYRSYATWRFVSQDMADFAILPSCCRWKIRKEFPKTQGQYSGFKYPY
Assay: Screen Quest Fluo-8 No Wash Calcium Assay (Bz-ATP evoked Ca2+ influx, FLIPR)
Assay type: cell-based
Conditions: rP2X7; HEK-293 cells stably transfected with P2X7 receptor, Bz-ATP at EC80, Fluo-8 NW; potency ranges A-D

compound: O=c1onc(Cc2c(F)cccc2Cl)n1Cc1cnco1
target.or.system: P2X7 receptor (Rattus norvegicus, UniProt Q64663)
IC50: > 10000 nM
//
compound: O=c1onc(Cc2cccc(F)c2)n1Cc1ccc(F)cc1
target.or.system: P2X7 receptor (Rattus norvegicus, UniProt Q64663)
IC50: 1000 to 10000 nM
//
compound: O=c1onc(Cc2ccc(F)cc2Cl)n1Cc1ccc(F)cc1
target.or.system: P2X7 receptor (Rattus norvegicus, UniProt Q64663)
IC50: 200 to 1000 nM
//
compound: O=c1onc(Cc2c(F)cccc2Cl)n1Cc1ccc(F)cc1Cl
target.or.system: P2X7 receptor (Rattus norvegicus, UniProt Q64663)
IC50: 1000 to 10000 nM
//
compound: Cc1noc(C)c1Cc1noc(=O)n1Cc1c(F)cccc1Cl
target.or.system: P2X7 receptor (Rattus norvegicus, UniProt Q64663)
IC50: > 10000 nM
//
compound: O=c1onc(CN2CCOc3ccccc32)n1Cc1ccc(F)cc1
target.or.system: P2X7 receptor (Rattus norvegicus, UniProt Q64663)
IC50: 200 to 1000 nM
//
compound: Cc1nc(C(F)(F)F)ccc1Cn1c(CC2CCC(F)(F)CC2)noc1=O
target.or.system: P2X7 receptor (Rattus norvegicus, UniProt Q64663)
IC50: > 10000 nM
//
compound: CCCOCn1c(Cc2c(F)cccc2Cl)noc1=O
target.or.system: P2X7 receptor (Rattus norvegicus, UniProt Q64663)
IC50: 1000 to 10000 nM
//
compound: O=c1onc(Cc2c(F)cccc2Cl)n1Cc1cccc2ncccc12
target.or.system: P2X7 receptor (Rattus norvegicus, UniProt Q64663)
IC50: 1000 to 10000 nM
//
compound: O=c1onc(Cc2c(F)cccc2Cl)n1Cc1cncnc1
target.or.system: P2X7 receptor (Rattus norvegicus, UniProt Q64663)
IC50: > 10000 nM
//
compound: Cc1nc(Cn2c(CC3CCC(F)(F)CC3)noc2=O)no1
target.or.system: P2X7 receptor (Rattus norvegicus, UniProt Q64663)
IC50: > 10000 nM
//
compound: O=c1snc(Cc2c(F)cccc2Cl)n1CC1CCC(F)(F)CC1
target.or.system: P2X7 receptor (Rattus norvegicus, UniProt Q64663)
IC50: < 200 nM
//
compound: CC(c1c(F)cccc1Cl)c1noc(=O)n1CC1CCCCC1 (centres unmarked)
target.or.system: P2X7 receptor (Rattus norvegicus, UniProt Q64663)
IC50: 1000 to 10000 nM
//
compound: O=c1onc(CC2CCC(F)(F)CC2)n1Cc1ccccc1Cl
target.or.system: P2X7 receptor (Rattus norvegicus, UniProt Q64663)
IC50: < 200 nM
//
compound: O=c1onc(CCc2c(F)cccc2Cl)n1Cc1c(F)cccc1Cl
target.or.system: P2X7 receptor (Rattus norvegicus, UniProt Q64663)
IC50: 200 to 1000 nM
//
compound: COc1ccc(Cn2c(Cc3ccc(F)cc3)noc2=O)cc1
target.or.system: P2X7 receptor (Rattus norvegicus, UniProt Q64663)
IC50: > 10000 nM
//
compound: O=c1onc(Cc2ccccn2)n1Cc1ccc(F)cc1
target.or.system: P2X7 receptor (Rattus norvegicus, UniProt Q64663)
IC50: > 10000 nM
//
compound: O=c1onc(Cc2ccc(F)cc2)n1CC1CCCCC1
target.or.system: P2X7 receptor (Rattus norvegicus, UniProt Q64663)
IC50: 200 to 1000 nM
//
compound: O=c1onc(Cc2cccc(Cl)c2Cl)n1Cc1c(F)cccc1Cl
target.or.system: P2X7 receptor (Rattus norvegicus, UniProt Q64663)
IC50: 1000 to 10000 nM
//
compound: O=c1onc(CC2CCC(F)(F)CC2)n1Cc1ccccc1F
target.or.system: P2X7 receptor (Rattus norvegicus, UniProt Q64663)
IC50: < 200 nM

====

Target: P2X7 receptor (Rattus norvegicus, UniProt Q64663)
Construct: rP2X7 (IC50; nM); other: rP2X7; HEK-293 cells stably transfected with P2X7 receptor, Bz-ATP at EC80, Fluo-8 NW; potency
Assay: Screen Quest Fluo-8 No Wash Calcium Assay (Bz-ATP evoked Ca2+ influx, FLIPR)
Format: cell-based
Settings: rP2X7; HEK-293 cells stably transfected with P2X7 receptor, Bz-ATP at EC80, Fluo-8 NW; potency ranges A-D
Experimental: Extracellular binding of Bz-ATP to P2X7 receptor opens the channel and allows Ca2+ influx into the cells. […] Its fluorescence increases upon binding to calcium. HEK-293 cells stably transfected with P2X7 receptor were seeded overnight in growth medium at 10,000 to 20,000 cell/well in 384-well plate. […] Then 10 μL/w of tests compounds and reference antagonist A438079 at 3×-concentration were injected with the […] and the kinetic response over a period of five minutes was monitored. […]
// reported IC50 per item
readout.name: IC50

molecule: O=c1onc(Cc2c(F)cccc2Cl)n1Cc1cccc(F)c1
result: < 200 nM
//
molecule: O=c1onc(Cc2c(F)cccc2Cl)n1CC1CCC1
result: 200 to 1000 nM
//
molecule: O=c1onc(Cc2c(F)cccc2Cl)n1CCN1CCC(F)(F)CC1
result: 1000 to 10000 nM
//
molecule: O=c1onc(Cc2ccccc2)n1Cc1c(F)cccc1Cl
result: 1000 to 10000 nM
//
molecule: CCC#CCn1c(Cc2c(F)cccc2Cl)noc1=O
result: 1000 to 10000 nM
//
molecule: CC1(C)CCCCC1Cn1c(Cc2c(F)cccc2Cl)noc1=O (centres unmarked)
result: 200 to 1000 nM
//
molecule: O=c1onc(Cc2ccccc2)n1Cc1ccc(F)cc1
result: 1000 to 10000 nM
//
molecule: O=c1onc(Cc2cccc(Cl)c2Cl)n1CC1CCC(F)(F)CC1
result: < 200 nM
//
molecule: O=c1onc(CC2CCC(F)(F)CC2)n1Cc1ncco1
result: 1000 to 10000 nM
//
molecule: Cc1noc(C)c1Cc1noc(=O)n1CC1CCC(F)(F)CC1
result: 200 to 1000 nM
//
molecule: O=c1onc(Cc2c(F)cccc2Cl)n1Cc1ccc(F)cc1
result: 200 to 1000 nM

====

IC50 values, listed per item
Target: P2X7 receptor (Homo sapiens, UniProt Q99572)
Sequence (Q99572 whole entry): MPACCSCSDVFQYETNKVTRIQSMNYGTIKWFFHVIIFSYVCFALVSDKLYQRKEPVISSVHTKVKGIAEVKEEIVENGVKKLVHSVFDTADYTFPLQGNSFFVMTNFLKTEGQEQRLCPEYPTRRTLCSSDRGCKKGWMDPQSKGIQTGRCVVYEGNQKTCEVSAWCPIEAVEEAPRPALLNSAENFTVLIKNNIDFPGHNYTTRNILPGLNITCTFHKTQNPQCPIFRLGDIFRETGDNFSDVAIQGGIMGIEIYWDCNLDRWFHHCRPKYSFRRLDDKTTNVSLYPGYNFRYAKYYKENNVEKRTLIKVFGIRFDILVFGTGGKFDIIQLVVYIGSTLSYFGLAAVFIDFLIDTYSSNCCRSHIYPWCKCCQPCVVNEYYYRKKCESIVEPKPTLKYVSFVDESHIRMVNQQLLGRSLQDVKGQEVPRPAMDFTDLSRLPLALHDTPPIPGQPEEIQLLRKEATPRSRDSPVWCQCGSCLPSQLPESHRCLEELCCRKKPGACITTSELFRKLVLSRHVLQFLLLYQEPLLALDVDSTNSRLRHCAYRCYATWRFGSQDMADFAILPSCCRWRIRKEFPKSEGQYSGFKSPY
Assay: Screen Quest Fluo-8 No Wash Calcium Assay (Bz-ATP evoked Ca2+ influx, FLIPR)
Assay type: cell-based
Design: hP2X7 (IC50; nM); other: hP2X7; HEK-293 cells stably transfected with P2X7 receptor, Bz-ATP at EC80, Fluo-8 NW; potency
Details: hP2X7; HEK-293 cells stably transfected with P2X7 receptor, Bz-ATP at EC80, Fluo-8 NW; potency ranges A-D
readout.name: IC50

compound: O=c1onc(Cc2c(F)cccc2Cl)n1Cc1ccc(Cl)cc1
result: 200 to 1000 nM
--
compound: O=c1onc(CN2CCCCC2)n1Cc1c(F)cccc1Cl
result: 200 to 1000 nM
--
compound: Cc1ncccc1Cc1noc(=O)n1CC1CCC(F)(F)CC1
result: 200 to 1000 nM
--
compound: O=c1onc(Cc2c(F)cccc2Cl)n1CC1CC2C(C1)C2(F)F (centres unmarked)
result: < 200 nM
--
compound: Cc1ncccc1Cc1noc(=O)n1Cc1c(F)cccc1Cl
result: > 10000 nM

====

Target: P2X7 receptor (Homo sapiens)
Experiment: Screen Quest Fluo-8 No Wash Calcium Assay (Bz-ATP evoked Ca2+ influx, FLIPR)
Assay type: cell-based
Set-up: hP2X7 (IC50; nM); other: hP2X7; HEK-293 cells stably transfected with P2X7 receptor, Bz-ATP at EC80, Fluo-8 NW; potency
Settings: hP2X7; HEK-293 cells stably transfected with P2X7 receptor, Bz-ATP at EC80, Fluo-8 NW; potency ranges A-D
readout.name: IC50

compound: CC(c1c(F)cccc1Cl)c1noc(=O)n1Cc1ccc(F)cc1 (stereo not drawn)
readout.name: IC50
result: > 10000 nM
//
compound: O=c1onc(Cc2c(F)cccc2Cl)n1CCCC1CCCCC1
readout.name: IC50
result: 1000 to 10000 nM
//
compound: O=c1snc(Cc2c(F)cccc2Cl)n1CC1CCCCC1
readout.name: IC50
result: 200 to 1000 nM
//
compound: Cc1cc(Cn2c(CC3CCC(F)(F)CC3)noc2=O)n(C)n1
readout.name: IC50
result: 200 to 1000 nM
//
compound: O=c1onc(Cc2c(F)cccc2Cl)n1Cc1ccc(F)cc1
readout.name: IC50
result: 200 to 1000 nM
//
compound: O=c1onc(Cc2cccc(F)c2)n1Cc1c(F)cccc1Cl
readout.name: IC50
result: 200 to 1000 nM
//
compound: O=c1onc(Cc2ccc(F)cc2Cl)n1Cc1c(F)cccc1Cl
readout.name: IC50
result: 200 to 1000 nM
//
compound: O=c1onc(Cc2c(F)cccc2Cl)n1Cc1cccc(C(F)(F)F)c1Cl
readout.name: IC50
result: 1000 to 10000 nM
//
compound: Cc1noc(C)c1Cc1noc(=O)n1Cc1c(F)cccc1Cl
readout.name: IC50
result: 1000 to 10000 nM
//
compound: O=c1onc(Cc2c(F)cccc2Cl)n1Cc1nccs1
readout.name: IC50
result: > 10000 nM
//
compound: COCn1c(Cc2c(F)cccc2Cl)noc1=O
readout.name: IC50
result: > 10000 nM
//
compound: Cn1ccnc1Cn1c(CC2CCC(F)(F)CC2)noc1=O
readout.name: IC50
result: > 10000 nM
//
compound: O=c1onc(Cc2c(F)cccc2Cl)n1CC1CCCOC1 (stereo not drawn)
readout.name: IC50
result: 1000 to 10000 nM
//
compound: COc1cccc(Cc2noc(=O)n2Cc2c(F)cccc2Cl)c1
readout.name: IC50
result: 1000 to 10000 nM
//
compound: O=c1snc(Cc2c(F)cccc2Cl)n1Cc1ccc(F)cc1
readout.name: IC50
result: 200 to 1000 nM
//
compound: Cc1cc(Cn2c(CC3CCC(F)(F)CC3)noc2=O)no1
readout.name: IC50
result: > 10000 nM
//
compound: O=c1onc(Cc2c(F)cccc2Cl)n1CC1CCC1
readout.name: IC50
result: 1000 to 10000 nM
//
compound: O=c1onc(Cc2cccc(Cl)c2Cl)n1CC1CCCCC1
readout.name: IC50
result: 200 to 1000 nM
//
compound: O=c1onc(CC2CCCCC2)n1Cc1c(F)cccc1Cl
readout.name: IC50
result: 200 to 1000 nM
//
compound: O=c1onc(Cc2ccc(F)cc2F)n1CC1CCC(F)(F)CC1
readout.name: IC50
result: < 200 nM
//
compound: COc1ccc(Cn2c(Cc3ccc(F)cc3)noc2=O)cc1
readout.name: IC50
result: > 10000 nM
